# Test system: Aβ and V642I-APP
# Type: cell-based
# Recorded Conditions: Table 5, marked **
Exercise: for every item that follows, state its recorded IC50.

q: Would you kindly share the measured IC50 for EFLIVIKSMAPRGFSALLLLTSEIDLPVKRRA [EF-HNA] ?
a: > 10 µM

q: Any idea what IC50 was measured for EFLIVIKS [dimerization peptide, reference compound] ?
a: > 10 µM

q: Look up IC50: YMAPRGFSCLLLLTGEIDLPVKKKK [HNG-KKK, HNG with its C-terminal KRRA substituted to KKKK]
a: > 10 µM

====

# Test Protocol: Apparent stability of peptides in the culture medium
# Assay type: physicochemical
# Recorded Conditions: 72-hr incubation of 10 μM peptides in the cultured medium; data not shown
Where no end group is shown, it is not given here.
Outcome Measure: amount of peptide relative to the amount at time zero

MAPRGFACLLLLTSEIDLPVKRRA [S7A HN]: about ⅔
EFLIVIKSMAPRGFSCLLLLTSEIDLPVKRRA [EF-HN]: virtually unaltered
MAPRGFSCLLLLTGEIDLPVKRRA [HNG, reference compound]: about ⅔
EFLIVIKSMAPRGFACLLLLTSEIDLPVKRRA [EF-(S7A)HN]: virtually unaltered

q: What does the data say about its amount of peptide relative to the amount at time zero? Entry: EFLIVIKSMAPRGFSCLLLLTGEIDLPVKRRA [EF-HNG]
a: virtually unaltered

====

For each record, write down the corresponding cytotoxicity by V642I-APP in the presence of peptide (% dead cells of total cells).
# Tested on: F11 cells transfected with V642I-APP cDNA
# Test Protocol: F11 cell death by V642I-APP transfection (Trypan blue exclusion)
# Assay type: cell-based
# Recorded Conditions: each peptide 10 μM; V642I-APP alone 53.7±1.2%; without transfection 9.0±1.4
Where no end group is shown, it is not given here.
Your answer is read as %, so omit the unit and give the number.

q: Fill in the blank: the reported cytotoxicity by V642I-APP in the presence of peptide (% dead cells of total cells) of MAPRGFSCLLLLTREIDLPVKRRA [(S14R)HN] is ____.
a: 52.6

q: Dear colleague, I am looking for the recorded cytotoxicity by V642I-APP in the presence of peptide (% dead cells of total cells) of the following sequence: MAPRGFSCLLLLTWEIDLPVKRRA [(S14W)HN]
a: 54.5

q: Entry MAPRGFSCLLLLTEEIDLPVKRRA [(S14E)HN] : reported cytotoxicity by V642I-APP in the presence of peptide (% dead cells of total cells) = ?
a: 45.0

q: cytotoxicity by V642I-APP in the presence of peptide (% dead cells of total cells) lookup needed for MAPRGFSCLLLLTTEIDLPVKRRA [(S14T)HN] , thanks.
a: 54.0

====

# Tested on: F11 cells transfected with V642I-APP cDNA
# Test Protocol: F11 cell death by V642I-APP transfection (Trypan blue exclusion)
# Assay type: cell-based
Where no end group is shown, it is not given here.
Outcome Measure: IC50 (nM)
# value in nM; strip the unit string

q: What value of measured IC50 is listed for EFLIVIKSMAPRGFACLLLLTSEIDLPVKRRA [EF-(S7A)HN] ?
a: 1
